test system: NCI-H322M; experiment: NCI SRB growth inhibition (single dose 10 µM / five-dose); type: cell-based, human; conditions: Homo sapiens; NCI-H322M, Non-small cell lung cancer; five-dose
Entries whose GI50 is below 3 µM take met; entries at or above 3 µM take not met.

(Q) Identify whether the molecule COc1cc(C=NNC(=O)c2ccc3[nH]c(-c4ccc(Cl)cc4)nc3c2)cc(OC)c1OC records GI50 below 3 µM.
(A) not met

(Q) Identify whether the molecule COc1ccc(-c2nc3cc(C(=O)NN=Cc4ccccc4O)ccc3[nH]2)cc1 records GI50 below 3 µM.
(A) not met

(Q) Identify whether the molecule O=C(NN=Cc1ccccc1O)c1ccc2[nH]c(-c3ccc(Cl)cc3)nc2c1 records GI50 below 3 µM.
(A) met

(Q) Identify whether the molecule COc1cccc(C=NNC(=O)c2ccc3[nH]c(-c4ccc(Cl)cc4)nc3c2)c1O records GI50 below 3 µM.
(A) met

(Q) Identify whether the molecule COc1cccc(C=NNC(=O)c2ccc3[nH]c(-c4ccc(Cl)cc4)nc3c2)c1 records GI50 below 3 µM.
(A) not met

(Q) Identify whether the molecule COc1cccc(C=NNC(=O)c2ccc3[nH]c(-c4ccccc4)nc3c2)c1O records GI50 below 3 µM.
(A) met

###

tested on: U251; experiment: NCI SRB growth inhibition (single dose 10 µM / five-dose); assay type: cell-based, human; details: Homo sapiens, U-251; U251 (CNS cancer), 10 µM; read-out: GI%
recorded_endpoint: inhibition at 10 µM (%)
Note: unit % is implicit; provide only the numeric part.

(Q) Name the recorded inhibition at 10 µM of the item COc1ccc(-c2nc3cc(C(=O)NN=Cc4ccc(OC)c(O)c4)ccc3[nH]2)cc1 [8l] in your answer.
(A) 44.8

(Q) Name the recorded inhibition at 10 µM of the item COc1ccc(C=NNC(=O)c2ccc3[nH]c(-c4ccccc4)nc3c2)cc1O [8e] in your answer.
(A) 14.6

(Q) Name the recorded inhibition at 10 µM of the item COc1ccc(-c2nc3cc(C(=O)NN=Cc4cccc(OC)c4O)ccc3[nH]2)cc1 [8k] in your answer.
(A) 97.3

(Q) Name the recorded inhibition at 10 µM of the item COc1cccc(C=NNC(=O)c2ccc3[nH]c(-c4ccccc4)nc3c2)c1 [8c] in your answer.
(A) 14.3

###

system: SF-268; test: NCI SRB growth inhibition (single dose 10 µM / five-dose); type: cell-based, human; conditions: Homo sapiens; SF-268 (CNS cancer), 10 µM; read-out: GI%
Please respond with reported inhibition at 10 µM for every item in the list.
Note: unit % is implicit; provide only the numeric part.

(Q) Name the recorded inhibition at 10 µM of the item COc1ccc(C=NNC(=O)c2ccc3[nH]c(-c4ccccc4)nc3c2)cc1O in your answer.
(A) 16

(Q) Name the recorded inhibition at 10 µM of the item COc1ccc(-c2nc3cc(C(=O)NN=Cc4cc(OC)c(OC)c(OC)c4)ccc3[nH]2)cc1 in your answer.
(A) 21

(Q) Name the recorded inhibition at 10 µM of the item COc1cccc(C=NNC(=O)c2ccc3[nH]c(-c4ccccc4)nc3c2)c1O in your answer.
(A) 99

###

target: BRAF (WT) (Homo sapiens, UniProt P15056)
Sequence (P15056 whole entry): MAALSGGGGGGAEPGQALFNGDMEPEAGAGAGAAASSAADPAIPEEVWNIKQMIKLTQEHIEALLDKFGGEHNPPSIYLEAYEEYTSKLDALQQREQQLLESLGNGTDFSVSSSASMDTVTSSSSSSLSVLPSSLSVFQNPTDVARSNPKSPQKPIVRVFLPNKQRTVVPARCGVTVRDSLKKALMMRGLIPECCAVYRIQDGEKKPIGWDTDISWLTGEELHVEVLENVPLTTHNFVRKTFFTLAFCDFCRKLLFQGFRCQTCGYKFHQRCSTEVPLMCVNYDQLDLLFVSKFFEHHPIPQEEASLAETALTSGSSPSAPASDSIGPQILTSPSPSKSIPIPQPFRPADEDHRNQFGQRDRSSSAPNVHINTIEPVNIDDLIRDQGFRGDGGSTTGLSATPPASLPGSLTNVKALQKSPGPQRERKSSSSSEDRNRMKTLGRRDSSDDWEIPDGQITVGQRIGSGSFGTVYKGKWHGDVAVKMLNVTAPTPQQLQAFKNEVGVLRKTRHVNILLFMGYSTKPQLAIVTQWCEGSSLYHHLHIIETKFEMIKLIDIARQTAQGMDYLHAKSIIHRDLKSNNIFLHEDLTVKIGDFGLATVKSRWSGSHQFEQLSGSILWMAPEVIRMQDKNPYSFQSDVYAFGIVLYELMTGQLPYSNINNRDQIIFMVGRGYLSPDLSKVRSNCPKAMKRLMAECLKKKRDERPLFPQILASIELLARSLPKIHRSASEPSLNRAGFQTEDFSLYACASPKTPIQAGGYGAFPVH
recorded_endpoint: pIC50
// pIC50 is dimensionless: -log10 of concentration (M)

(Q) Name the recorded pIC50 of the item COc1cc(C=NNC(=O)c2ccc3[nH]c(-c4ccc(Cl)cc4)nc3c2)cc(OC)c1OC in your answer.
(A) 6.60

###

test system: SF-539; assay: NCI SRB growth inhibition (single dose 10 µM / five-dose); assay type: cell-based, human; settings: Homo sapiens; SF-539, CNS cancer; five-dose
recorded_endpoint: GI50 (µM)
Note: unit µM is implicit; provide only the numeric part.

(Q) Name the recorded GI50 of the item COc1cccc(C=NNC(=O)c2ccc3[nH]c(-c4ccc(Cl)cc4)nc3c2)c1 [8q] in your answer.
(A) 7.14

(Q) Name the recorded GI50 of the item COc1ccc(-c2nc3cc(C(=O)NN=Cc4ccccc4O)ccc3[nH]2)cc1 [8h] in your answer.
(A) 2.05

(Q) Name the recorded GI50 of the item O=C(NN=Cc1ccccc1O)c1ccc2[nH]c(-c3ccc(Cl)cc3)nc2c1 [8o] in your answer.
(A) 0.37

(Q) Name the recorded GI50 of the item COc1ccc(-c2nc3cc(C(=O)NN=Cc4cccc(OC)c4O)ccc3[nH]2)cc1 [8k] in your answer.
(A) 2.8

(Q) Name the recorded GI50 of the item COc1cc(C=NNC(=O)c2ccc3[nH]c(-c4ccc(Cl)cc4)nc3c2)cc(OC)c1OC [8u] in your answer.
(A) 2.02

###

Please respond with reported inhibition at 10 µM for every item in the list.
tested on: PC-3; assay: NCI SRB growth inhibition (single dose 10 µM / five-dose); type: cell-based, human; settings: Homo sapiens; PC-3 (Prostate cancer), 10 µM; read-out: GI%
Note: unit % is implicit; provide only the numeric part.

(Q) Name the recorded inhibition at 10 µM of the item COc1ccc(C=NNC(=O)c2ccc3[nH]c(-c4ccc(Cl)cc4)nc3c2)cc1O in your answer.
(A) 56.5

(Q) Name the recorded inhibition at 10 µM of the item COc1ccc(-c2nc3cc(C(=O)NN=Cc4ccc(OC)c(O)c4)ccc3[nH]2)cc1 in your answer.
(A) 51.2

(Q) Name the recorded inhibition at 10 µM of the item COc1ccc(-c2nc3cc(C(=O)NN=Cc4cccc(O)c4)ccc3[nH]2)cc1 in your answer.
(A) 34.4

(Q) Name the recorded inhibition at 10 µM of the item COc1cc(C=NNC(=O)c2ccc3[nH]c(-c4ccccc4)nc3c2)cc(OC)c1OC in your answer.
(A) 37.9

(Q) Name the recorded inhibition at 10 µM of the item COc1ccc(C=NNC(=O)c2ccc3[nH]c(-c4ccccc4)nc3c2)cc1O in your answer.
(A) 11.5

(Q) Name the recorded inhibition at 10 µM of the item COc1ccc(-c2nc3cc(C(=O)NN=Cc4cccc(OC)c4O)ccc3[nH]2)cc1 in your answer.
(A) 87.9

(Q) Name the recorded inhibition at 10 µM of the item O=C(NN=Cc1cccc(O)c1)c1ccc2[nH]c(-c3ccc(Cl)cc3)nc2c1 in your answer.
(A) 48.8

(Q) Name the recorded inhibition at 10 µM of the item COc1cccc(C=NNC(=O)c2ccc3[nH]c(-c4ccccc4)nc3c2)c1O in your answer.
(A) 82.2

(Q) Name the recorded inhibition at 10 µM of the item COc1cccc(C=NNC(=O)c2ccc3[nH]c(-c4ccccc4)nc3c2)c1 in your answer.
(A) 24.6

(Q) Name the recorded inhibition at 10 µM of the item COc1ccc(OC)c(C=NNC(=O)c2ccc3[nH]c(-c4ccc(Cl)cc4)nc3c2)c1 in your answer.
(A) 58.5

(Q) Name the recorded inhibition at 10 µM of the item COc1ccc(-c2nc3cc(C(=O)NN=Cc4cc(OC)c(OC)c(OC)c4)ccc3[nH]2)cc1 in your answer.
(A) 12.9

(Q) Name the recorded inhibition at 10 µM of the item O=C(NN=Cc1cccc(O)c1)c1ccc2[nH]c(-c3ccccc3)nc2c1 in your answer.
(A) 11.8

(Q) Name the recorded inhibition at 10 µM of the item O=C(NN=Cc1ccccc1O)c1ccc2[nH]c(-c3ccc(Cl)cc3)nc2c1 in your answer.
(A) 78.5

(Q) Name the recorded inhibition at 10 µM of the item COc1ccc(OC)c(C=NNC(=O)c2ccc3[nH]c(-c4ccccc4)nc3c2)c1 in your answer.
(A) 55.5

(Q) Name the recorded inhibition at 10 µM of the item COc1ccc(-c2nc3cc(C(=O)NN=Cc4cc(OC)ccc4OC)ccc3[nH]2)cc1 in your answer.
(A) 13.6

###

Please respond with reported GI50 for every item in the list.
tested on: HOP-62; experiment: NCI SRB growth inhibition (single dose 10 µM / five-dose); format: cell-based, human; conditions: Homo sapiens; HOP-62, Non-small cell lung cancer; five-dose
Note: unit nM is implicit; provide only the numeric part.

(Q) Name the recorded GI50 of the item COc1ccc(-c2nc3cc(C(=O)NN=Cc4cccc(OC)c4)ccc3[nH]2)cc1 [8j] in your answer.
(A) 2700

(Q) Name the recorded GI50 of the item COc1cccc(C=NNC(=O)c2ccc3[nH]c(-c4ccccc4)nc3c2)c1O [8d] in your answer.
(A) 1650

(Q) Name the recorded GI50 of the item O=C(NN=Cc1ccccc1O)c1ccc2[nH]c(-c3ccc(Cl)cc3)nc2c1 [8o] in your answer.
(A) 840

(Q) Name the recorded GI50 of the item COc1cccc(C=NNC(=O)c2ccc3[nH]c(-c4ccc(Cl)cc4)nc3c2)c1 [8q] in your answer.
(A) 1920

(Q) Name the recorded GI50 of the item COc1ccc(-c2nc3cc(C(=O)NN=Cc4cccc(OC)c4O)ccc3[nH]2)cc1 [8k] in your answer.
(A) 3110

(Q) Name the recorded GI50 of the item COc1ccc(-c2nc3cc(C(=O)NN=Cc4ccccc4O)ccc3[nH]2)cc1 [8h] in your answer.
(A) 5090

(Q) Name the recorded GI50 of the item COc1cccc(C=NNC(=O)c2ccc3[nH]c(-c4ccc(Cl)cc4)nc3c2)c1O [8r] in your answer.
(A) 1040

(Q) Name the recorded GI50 of the item COc1cc(C=NNC(=O)c2ccc3[nH]c(-c4ccc(Cl)cc4)nc3c2)cc(OC)c1OC [8u] in your answer.
(A) 4680
